# credit: ChEMBL document CHEMBL2346537

experiment: Cytotoxicity against mouse Neuro2a cells expressing APP Swedish mutant assessed as cell viability at 10 uM after 24 hrs by MTT assay relative to control; type: cell-based, N2a; conditions: read-out: Activity
Property label: viability at 24 h, 10 µM (%)
# value in %; strip the unit string

COc1ccc(CN2CCN(c3ccc(Br)cc3NC(=O)c3cc4ccccc4o/c3=N\c3ccccc3)CC2)cc1 = 98.3

# query: viability at 24 h, 10 µM of entry N#Cc1cccc(CN2CCN(c3ccc(Br)cc3NC(=O)c3cc4ccccc4o/c3=N\c3ccccc3)CC2)c1
88.7

# viability at 24 h, 10 µM lookup, item O=C(Nc1cc(Br)ccc1N1CCN(C(=O)c2ccco2)CC1)c1cc2ccccc2o/c1=N\c1ccccc1
95.4

Quick one: viability at 24 h, 10 µM of O=C(Nc1cc(Br)ccc1N1CCN(CCO)CC1)c1cc2ccccc2o/c1=N\c1ccccc1 ?
101

Item O=C(Nc1cc(Br)ccc1N1CCN(Cc2ccccc2)CC1)c1cc2ccccc2o/c1=N\c1ccccc1 has what recorded viability at 24 h, 10 µM?
95

Quick one: viability at 24 h, 10 µM of O=C(Nc1cc(Br)ccc1N1CCN(CCN2C(=O)c3ccccc3C2=O)CC1)c1cc2ccccc2o/c1=N\c1ccccc1 ?
96.5

Please look up its viability at 24 h, 10 µM: N=c1oc2ccccc2cc1C(=O)Nc1cc(Br)ccc1N1CCN(Cc2ccccc2)CC1
98.9

For the compound O=C(Nc1cc(Br)ccc1N1CCN(CCc2cc3ccccc3[nH]2)CC1)c1cc2ccccc2o/c1=N\c1ccccc1 , what viability at 24 h, 10 µM is on record?
111
